tested on: WSU-DLCL2 cells; experiment: Cell proliferation analysis (WSU-DLCL2, Cell Titer Glo); type: cell-based; conditions: Homo sapiens, WSUDLCL2, Table 3B, 6 days, read-out: WSU proliferation IC50
MEASURE_NAME: IC50 (nM)
Give your result in nM as a bare value.

**Q:** Form field: reported IC50 of CCN(c1cc(C#CC2CCN(C[C@H](C)O)CC2)cc(C(=O)NCc2c(C(C)C)cc(C)[nH]c2=O)c1C)C1CCOCC1
**A:** 745

**Q:** Form field: reported IC50 of CCCc1cc(C)[nH]c(=O)c1CNC(=O)c1cc(F)cc(N(CC)C2C[C@@H](C)N[C@H](C)C2)c1C (stereo partly shown)
**A:** 13200

**Q:** Form field: reported IC50 of CCN(c1cc(-c2ccc(C(=O)NCCO)cc2)cc(C(=O)NCc2c(C(C)C)cc(C)[nH]c2=O)c1C)C1CCOCC1
**A:** 890

**Q:** Form field: reported IC50 of CCN(c1cc(-c2ccc(CN3CCOCC3)nc2)cc(C(=O)NCc2c(C)cc(C)[nH]c2=O)c1C)C1C[C@@H](C)N[C@H](C)C1 (stereo partly shown)
**A:** 3830

====

target: wild-type EZH2 (PRC2 complex) (Homo sapiens (Human), UniProt Q15910); assay: PRC2 enzyme assay on peptide substrates (wild-type EZH2)
Sequence (Q15910 other isoform, or with tags, fused parts or gaps): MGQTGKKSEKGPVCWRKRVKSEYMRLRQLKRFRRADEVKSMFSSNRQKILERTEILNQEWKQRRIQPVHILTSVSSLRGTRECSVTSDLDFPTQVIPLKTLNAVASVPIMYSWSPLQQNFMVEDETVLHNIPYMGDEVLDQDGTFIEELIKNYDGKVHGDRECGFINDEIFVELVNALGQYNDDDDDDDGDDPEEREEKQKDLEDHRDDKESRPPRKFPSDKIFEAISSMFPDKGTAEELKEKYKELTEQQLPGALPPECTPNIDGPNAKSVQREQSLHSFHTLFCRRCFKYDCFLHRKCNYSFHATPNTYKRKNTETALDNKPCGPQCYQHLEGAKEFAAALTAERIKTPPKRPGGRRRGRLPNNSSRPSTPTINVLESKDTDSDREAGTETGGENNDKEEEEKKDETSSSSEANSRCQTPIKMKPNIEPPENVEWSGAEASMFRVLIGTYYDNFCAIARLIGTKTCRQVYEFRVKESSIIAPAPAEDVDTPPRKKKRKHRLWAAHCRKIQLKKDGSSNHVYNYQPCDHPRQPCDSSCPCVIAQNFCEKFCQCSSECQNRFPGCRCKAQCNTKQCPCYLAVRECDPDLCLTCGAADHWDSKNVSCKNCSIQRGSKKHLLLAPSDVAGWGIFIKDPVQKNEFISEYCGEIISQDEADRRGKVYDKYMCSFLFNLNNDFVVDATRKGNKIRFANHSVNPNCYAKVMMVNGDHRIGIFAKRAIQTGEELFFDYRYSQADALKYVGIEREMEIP
Sequence (O75530 whole entry partner): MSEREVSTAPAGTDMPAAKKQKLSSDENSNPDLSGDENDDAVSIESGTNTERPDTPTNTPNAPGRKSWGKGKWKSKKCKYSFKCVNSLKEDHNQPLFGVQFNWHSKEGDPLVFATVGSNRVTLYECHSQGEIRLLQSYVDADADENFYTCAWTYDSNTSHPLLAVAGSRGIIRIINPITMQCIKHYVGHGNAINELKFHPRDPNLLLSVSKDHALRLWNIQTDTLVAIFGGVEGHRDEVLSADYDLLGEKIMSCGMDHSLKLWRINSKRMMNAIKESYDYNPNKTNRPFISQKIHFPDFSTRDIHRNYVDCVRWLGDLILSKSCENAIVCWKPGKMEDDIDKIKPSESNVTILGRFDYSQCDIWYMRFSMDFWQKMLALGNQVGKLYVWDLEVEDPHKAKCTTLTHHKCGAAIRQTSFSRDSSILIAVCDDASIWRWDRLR
Sequence (Q15022 whole entry partner): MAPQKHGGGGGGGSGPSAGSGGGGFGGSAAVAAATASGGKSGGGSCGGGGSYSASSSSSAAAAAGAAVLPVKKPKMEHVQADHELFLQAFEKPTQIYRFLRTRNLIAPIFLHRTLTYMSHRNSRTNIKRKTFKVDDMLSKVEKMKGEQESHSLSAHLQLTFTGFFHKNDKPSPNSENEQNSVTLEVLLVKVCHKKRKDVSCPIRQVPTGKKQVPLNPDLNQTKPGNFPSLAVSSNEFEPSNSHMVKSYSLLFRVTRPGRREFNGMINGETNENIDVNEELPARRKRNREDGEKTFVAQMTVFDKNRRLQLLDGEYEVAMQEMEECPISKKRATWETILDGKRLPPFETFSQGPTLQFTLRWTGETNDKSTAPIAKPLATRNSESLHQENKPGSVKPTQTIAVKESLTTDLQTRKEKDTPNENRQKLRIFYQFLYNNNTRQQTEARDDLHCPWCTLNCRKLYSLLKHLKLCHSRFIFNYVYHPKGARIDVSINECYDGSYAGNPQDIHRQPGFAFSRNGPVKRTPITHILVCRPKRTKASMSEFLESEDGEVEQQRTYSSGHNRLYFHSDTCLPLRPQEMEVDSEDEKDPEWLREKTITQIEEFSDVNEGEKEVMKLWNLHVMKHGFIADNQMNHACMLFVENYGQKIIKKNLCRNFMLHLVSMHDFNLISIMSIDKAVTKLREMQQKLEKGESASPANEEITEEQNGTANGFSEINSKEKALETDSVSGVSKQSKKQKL
Sequence (Q09028 whole entry partner): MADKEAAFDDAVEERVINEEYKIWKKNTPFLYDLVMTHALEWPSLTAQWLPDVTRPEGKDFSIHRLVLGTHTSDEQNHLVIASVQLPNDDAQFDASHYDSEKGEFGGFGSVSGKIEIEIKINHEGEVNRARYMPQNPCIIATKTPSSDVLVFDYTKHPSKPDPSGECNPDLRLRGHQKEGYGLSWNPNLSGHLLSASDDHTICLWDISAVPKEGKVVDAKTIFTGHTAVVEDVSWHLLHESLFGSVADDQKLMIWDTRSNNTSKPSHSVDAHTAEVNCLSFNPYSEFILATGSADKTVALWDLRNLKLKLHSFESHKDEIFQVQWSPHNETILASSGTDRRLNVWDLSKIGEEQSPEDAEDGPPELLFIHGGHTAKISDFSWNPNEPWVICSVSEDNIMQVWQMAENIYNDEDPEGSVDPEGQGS
Response field label: string, one of condition met (IC50 strictly below 6 nM) or condition not met.

**Q:** Determine if CCN(c1cc(F)cc(C(=O)NCc2c(C)cc(C)[nH]c2=O)c1C)[C@H]1CC[C@H](N(C)CCOC)CC1 shows IC50 strictly lower than 6 nM.
**A:** condition met

**Q:** Determine if CCN(c1cc(-c2cnn(C)c2)cc(C(=O)NCc2c(C)cc(C)[nH]c2=O)c1C)[C@H]1CC[C@H](N(C)CCOC)CC1 shows IC50 strictly lower than 6 nM.
**A:** condition met

**Q:** Determine if CCN(c1cc(-c2ccc(C)nc2)cc(C(=O)NCc2c(C)cc(C)[nH]c2=O)c1C)[C@H]1CC[C@H](N(C)CCOC)CC1 shows IC50 strictly lower than 6 nM.
**A:** condition met

**Q:** Determine if CCN(c1cc(-c2cnc(C)nc2)cc(C(=O)NCc2c(C)cc(C)[nH]c2=O)c1C)[C@H]1CC[C@H](N(C)CCOC)CC1 shows IC50 strictly lower than 6 nM.
**A:** condition not met

**Q:** Determine if CCN(c1cc(-c2cnccn2)cc(C(=O)NCc2c(C)cc(C)[nH]c2=O)c1C)[C@H]1CC[C@H](N(C)CCOC)CC1 shows IC50 strictly lower than 6 nM.
**A:** condition not met

**Q:** Determine if CCN(c1cc(C#CC2CCN(C(C)=O)CC2)cc(C(=O)NCc2c(C)cc(C)[nH]c2=O)c1C)[C@H]1CC[C@H](N(C)C)CC1 shows IC50 strictly lower than 6 nM.
**A:** condition not met

====

tested on: WSU-DLCL2 cells; assay: Cell proliferation analysis (WSU-DLCL2, Cell Titer Glo); assay type: cell-based; conditions: Homo sapiens, WSUDLCL2, Table 3B, 6 days, read-out: WSU proliferation IC50
Response field label: string, one of true (IC50 strictly below 0.4 µM) or false.

**Q:** Determine if CCN(c1cc(-c2ccc(CN3CCN(C)CC3)nc2)cc(C(=O)NCc2c(C)cc(C)[nH]c2=O)c1C)C1C[C@@H](C)N[C@H](C)C1 (stereo partly drawn) [Compound 122] shows IC50 strictly lower than 0.4 µM.
**A:** false

**Q:** Determine if CCN(c1cc(-c2ccc(CN3CCOCC3)nc2)cc(C(=O)NCc2c(C)cc(C)[nH]c2=O)c1C)[C@H]1CC[C@H](N(C)C)CC1 [Compound 145] shows IC50 strictly lower than 0.4 µM.
**A:** true

**Q:** Determine if CCN(c1cc(-c2ccc(CN3CC[C@H](O)C3)nc2)cc(C(=O)NCc2c(C(C)C)cc(C)[nH]c2=O)c1C)[C@H]1CC[C@H](N(C)C)CC1 [Compound 150] shows IC50 strictly lower than 0.4 µM.
**A:** true

**Q:** Determine if CCN(c1cc(F)cc(C(=O)NCc2c(C)cc(C)[nH]c2=O)c1C)C1C[C@@H](C)N(C)[C@H](C)C1 (stereo partly drawn) [Compound 118] shows IC50 strictly lower than 0.4 µM.
**A:** false

**Q:** Determine if CCN(c1cc(F)cc(C(=O)NCc2c(C)c(F)c(C)n(C)c2=O)c1C)C1C[C@@H](C)N[C@H](C)C1 (stereo partly drawn) [Compound 115] shows IC50 strictly lower than 0.4 µM.
**A:** false

**Q:** Determine if CCN(c1cc(-c2cnc(OC3CN(C)C3)cn2)cc(C(=O)NCc2c(C)cc(C)[nH]c2=O)c1C)C1CCOCC1 [Compound 131] shows IC50 strictly lower than 0.4 µM.
**A:** true

====

molecular target: wild-type EZH2 (PRC2 complex) (Homo sapiens (Human), UniProt Q15910); experiment: PRC2 enzyme assay on peptide substrates (wild-type EZH2); conditions: read-out: WT EZH2 IC50; Table 3B; wild-type PRC2 enzyme, peptide substrate
Provide the recorded IC50 for the entries that follow.

**Q:** Form field: reported IC50 of CCN(c1cc(-c2ccc(COC)nc2)cc(C(=O)NCc2c(C)cc(C)[nH]c2=O)c1C)[C@H]1CC[C@H](N(C)C)CC1 [Compound 152]
**A:** 0.018 µM

**Q:** Form field: reported IC50 of CCN(c1cc(-c2ccc(C(=O)NCCO)cc2)cc(C(=O)NCc2c(C(C)C)cc(C)[nH]c2=O)c1C)C1CCOCC1 [Compound 156]
**A:** < 0.01 µM

**Q:** Form field: reported IC50 of CCN(c1cc(-c2cnc(OC(C)C)cn2)cc(C(=O)NCc2c(C)cc(C)[nH]c2=O)c1C)C1CCOCC1 [Compound 127]
**A:** < 0.01 µM

**Q:** Form field: reported IC50 of CCN1CCC(C#Cc2cc(C(=O)NCc3c(C)cc(C)[nH]c3=O)c(C)c(N(CC)C3CCOCC3)c2)CC1 [Compound 104]
**A:** < 0.01 µM

**Q:** Form field: reported IC50 of CCN(c1cc(-c2ccc(CN3CCNCC3)nc2)cc(C(=O)NCc2c(C)cc(C)[nH]c2=O)c1C)C1C[C@@H](C)N[C@H](C)C1 (some centres unmarked) [Compound 123]
**A:** < 0.01 µM

**Q:** Form field: reported IC50 of CCN(c1cc(-c2ccc(CN3CC[C@H](O)C3)nc2)cc(C(=O)NCc2c(C)cc(C)[nH]c2=O)c1C)[C@H]1CC[C@H](N(C)C)CC1 [Compound 148]
**A:** < 0.01 µM

**Q:** Form field: reported IC50 of CCN(c1cc(-c2ccc(CN3CCN(C)CC3)nc2)cc(C(=O)NCc2c(C)cc(C)[nH]c2=O)c1C)C1C[C@@H](C)N[C@H](C)C1 (some centres unmarked) [Compound 122]
**A:** < 0.01 µM

**Q:** Form field: reported IC50 of CCCc1cc(C)[nH]c(=O)c1CNC(=O)c1cc(F)cc(N(CC)C2C[C@@H](C)N[C@H](C)C2)c1C (some centres unmarked) [Compound 116]
**A:** 0.132 µM

**Q:** Form field: reported IC50 of CCN(c1cc(-c2ccc(OC)nc2)cc(C(=O)NCc2c(C)cc(C)[nH]c2=O)c1C)C1C[C@@H](C)N[C@H](C)C1 (some centres unmarked) [Compound 120]
**A:** < 0.01 µM

**Q:** Form field: reported IC50 of CCN(c1cc(-c2cnc(N3CCN(C)CC3)cn2)cc(C(=O)NCc2c(C)cc(C)[nH]c2=O)c1C)[C@H]1CC[C@H](N(C)C)CC1 [Compound 149]
**A:** < 0.01 µM

**Q:** Form field: reported IC50 of CCN(c1cc(C#CCN2CCCC2)cc(C(=O)NCc2c(C)cc(C)[nH]c2=O)c1C)C1CCOCC1 [Compound 107]
**A:** 0.011 µM

**Q:** Form field: reported IC50 of CCN(c1cc(-c2ccc(CN3CC(O)C3)nc2)cc(C(=O)NCc2c(C)cc(C)[nH]c2=O)c1C)[C@H]1CC[C@H](N(C)C)CC1 [Compound 151]
**A:** < 0.01 µM

**Q:** Form field: reported IC50 of CCN(c1cc(-c2cnc(OC)cn2)cc(C(=O)NCc2c(C(C)C)cc(C)[nH]c2=O)c1C)C1CCOCC1 [Compound 126]
**A:** < 0.01 µM

**Q:** Form field: reported IC50 of CCN(c1cc(F)cc(C(=O)NCc2c(C(C)C)cc(C)[nH]c2=O)c1C)C1C[C@@H](C)N[C@H](C)C1 (some centres unmarked) [Compound 117]
**A:** 0.35 µM

**Q:** Form field: reported IC50 of CCN(c1cc(C#CCN2CC(O)C2)cc(C(=O)NCc2c(C)cc(C)[nH]c2=O)c1C)[C@H]1CC[C@H](N(C)C)CC1 [Compound 109]
**A:** < 0.01 µM

**Q:** Form field: reported IC50 of CCN(c1cc(F)cc(C(=O)NCc2c(C)cc(C)[nH]c2=O)c1C)C1C[C@@H](C)N(CC)[C@H](C)C1 (some centres unmarked) [Compound 119]
**A:** 0.0185 µM

**Q:** Form field: reported IC50 of CCN(c1cc(F)cc(C(=O)NCc2c(C)cc(C)n(C)c2=O)c1C)C1C[C@@H](C)N[C@H](C)C1 (some centres unmarked) [Compound 113]
**A:** 1.22 µM

**Q:** Form field: reported IC50 of CCN(c1cc(-c2ccc(CN3CCCN(C)CC3)nc2)cc(C(=O)NCc2c(C)cc(C)[nH]c2=O)c1C)[C@H]1CC[C@H](N(C)C)CC1 [Compound 146]
**A:** < 0.01 µM

**Q:** Form field: reported IC50 of CCN(c1cc(F)cc(C(=O)NCc2c(C)cc(C)[nH]c2=O)c1C)C1C[C@@H](C)N(C)[C@H](C)C1 (some centres unmarked) [Compound 118]
**A:** 0.0363 µM

**Q:** Form field: reported IC50 of CCN(c1cc(C#CCN2CCCCC2)cc(C(=O)NCc2c(C)cc(C)[nH]c2=O)c1C)C1CCOCC1 [Compound 106]
**A:** < 0.01 µM

**Q:** Form field: reported IC50 of CCN(c1cc(C#CCN2C[C@@H](C)N[C@@H](C)C2)cc(C(=O)NCc2c(C(C)C)cc(C)[nH]c2=O)c1C)C1CCOCC1 [Compound 101]
**A:** < 0.01 µM

**Q:** Form field: reported IC50 of CCN(c1cc(F)cc(C(=O)NCc2c(C)c(F)c(C)n(C)c2=O)c1C)C1C[C@@H](C)N[C@H](C)C1 (some centres unmarked) [Compound 115]
**A:** 0.497 µM

**Q:** Form field: reported IC50 of CCN(c1cc(-c2cnc(C(F)(F)F)cn2)cc(C(=O)NCc2c(C)cc(C)[nH]c2=O)c1C)C1CCOCC1 [Compound 128]
**A:** < 0.01 µM

**Q:** Form field: reported IC50 of CCN(c1cc(C#CC2CCN(C[C@@H](C)O)CC2)cc(C(=O)NCc2c(C(C)C)cc(C)[nH]c2=O)c1C)C1CCOCC1 [Compound 102]
**A:** 0.01 µM

**Q:** Form field: reported IC50 of CCN(c1cc(C#CCN2CC(O)C2)cc(C(=O)NCc2c(C(C)C)cc(C)[nH]c2=O)c1C)[C@H]1CC[C@H](N(C)C)CC1 [Compound 110]
**A:** < 0.01 µM

**Q:** Form field: reported IC50 of CCN(c1cc(-c2cnc(OC3CCN(C)CC3)cn2)cc(C(=O)NCc2c(C)cc(C)[nH]c2=O)c1C)C1CCOCC1 [Compound 132]
**A:** 0.02 µM

Values were extracted from patent US11642348B2.
